The following molecules are listed with their measured melting point values.

N#CCc1cccnc1Cl = 80 to 82 °C
COCCn1c(C)c(C)c2cc(C(=O)O)ccc21 = 219 to 221 °C
Nc1ccc(Cl)cc1-n1cccc1 = 92 to 94 °C
O=C(O)c1cc2ccc(C(F)(F)F)cc2[nH]1 = 143 to 145 °C
COCCn1c(C)cc(C=O)c1C = 44 to 46 °C
CC1(c2ccc(S(N)(=O)=O)cc2)NC(=O)NC1=O (stereo not drawn) = 249 to 251 °C
O=c1ccc(-c2cccc([N+](=O)[O-])c2)n[nH]1 = 274 to 276 °C
COc1cccc(CNC(=O)CCl)c1 = 100 to 104 °C

Which measured melting point value corresponds to O=C(O)c1ccc(-c2ccccc2F)o1 ?
173 to 175 °C

Value lookup for melting point; key = ClCc1ccc(-c2nc3cc(Cl)ccc3s2)cc1
164 to 166 °C

I have this molecule here, O=C(O)CSCC(=O)N1CCOCC1 , and I need its recorded melting point.
119 to 121 °C

Query: melting point; subject: COCC(C)NC(N)=O (stereo not drawn)
73 to 75 °C

Fill in the blank: the reported melting point of O=C(O)c1ccc(Cl)c(NC(=O)c2cccs2)c1 is ____.
166 to 168 °C

Values were extracted from a melting point compilation (Tetko et al.).
